- target-or-test-system: human PPARgamma (Homo sapiens, UniProt P37231)
- Sequence (P37231 238-503 limits assumed): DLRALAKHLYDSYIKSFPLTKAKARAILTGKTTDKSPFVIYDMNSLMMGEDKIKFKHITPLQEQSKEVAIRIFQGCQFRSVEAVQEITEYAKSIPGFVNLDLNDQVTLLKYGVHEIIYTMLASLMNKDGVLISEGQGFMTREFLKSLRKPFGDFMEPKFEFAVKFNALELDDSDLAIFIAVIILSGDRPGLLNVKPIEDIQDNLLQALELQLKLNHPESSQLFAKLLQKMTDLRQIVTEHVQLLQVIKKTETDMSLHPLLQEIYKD
- test-details: cellular GAL4 reporter gene assay, agonist mode, PPARgamma
What pEC50 was measured for each of the following?
Keep it numeric: pEC50 is minus log10 of the concentration in mol/L.

The compound listed as CCCCC/C=C\C/C=C\C/C=C\C/C=C\CCC(CC)C(=O)O (centres unmarked) shows pEC50 equal to 5.82

The compound listed as CCCCCCCCCCCCCCSC(C)C(=O)O (centres unmarked) shows pEC50 equal to 5.80
